method: Toxicity test, oral administration, deaths over 48 hours
testSettings: rat, in vivo, rats, orally administered, Dose 10 mg/kg, deaths over 48 hours, read-out: Lethal Rate(%)
propertyLabel: mortality at 48 h
# number then unit; no other words

compound	reading
COC(OC)C1(C)C=C(N2CCCC2=O)c2cc(C#N)ccc2O1 (racemic)	0%

We now examine a further compound.
Record CC1(C2OCCCO2)C=C(N2CCCC2=O)c2cc([N+](=O)[O-])ccc2O1 (racemic) . Reported mortality at 48 h: 0%

* * *

method: Toxicity test, oral administration, deaths over 48 hours
testSettings: rat, in vivo, rats, orally administered, amount of test compound which causes a 50% lethal rate, read-out: LD₅₀
propertyLabel: LD50 at 48 h

compound	propertyLabel	reading
CC1(C2OCCCO2)C=C(N2CCCC2=O)c2cc([N+](=O)[O-])ccc2O1 (racemic)	LD50 at 48 h	> 50 mg/kg

Record COC(OC)C1(C)C=C(N2CCCC2=O)c2cc(C#N)ccc2O1 (racemic) . Reported LD50 at 48 h: > 50 mg/kg

Hey, just so you know, these numbers are from patent EP0514935B1.
